Ref: ChEMBL document CHEMBL3045943

Test system: Photobacterium leiognathi
experimentSummary: Growth inhibition of Photobacterium leiognathi Sh1 assessed as bio-luminescence at 0.25 mg/ml after 16 to 18 hr by chronic action test relative to control
Format: functional
Set-up: scale not given: the % may be the effect or the level left
Quick list: Activity per entry.
Give the quantity in %, number only.

Examples from the recorded data:
{"columns": ["compoundStructureString", "testedTarget", "Activity / %"],
 "data": [
  ["Cc1ccc(-c2nn3c(SCC(=O)Nc4ccccc4F)nc4ccccc4c3nc2=O)cc1", "Photobacterium leiognathi", 100],
  ["Cc1ccc(-c2nn3c(SCC(=O)Nc4ccc(F)cc4)nc4ccccc4c3nc2=O)cc1", "Photobacterium leiognathi", 166.67]
]}

Exam item: Give the reported Activity for this compound. `COc1ccc(-c2nn3c(SCC(=O)Nc4ccccc4C)nc4ccccc4c3nc2=O)cc1`
Marked response: 94.55

Exam item: Give the reported Activity for this compound. `O=C(CSc1nc2ccccc2c2nc(=O)c(-c3ccccc3)nn12)Nc1cccc(C(F)(F)F)c1`
Marked response: 187.5
